# ASSAY PROTOCOL: PAMPA permeability
# Format: in vitro ADME
# reported PAMPA permeability; entries follow

1) Cc1ccc(-c2nc(CN3CCC(C(=O)NCCCN4C[C@H](C)C[C@H](C)C4)CC3)c(C)o2)cc1C	219.4 1×10^−6 cm/s
2) CC[C@@H]1C[C@H](CC)CN(CCCNC(=O)C2CCN(Cc3nc(-c4ccccc4C)oc3C)CC2)C1	1267 1×10^−6 cm/s
3) Cc1oc(-c2ccc(Cl)c(Cl)c2)nc1CN1CCC(C(=O)NCCCN2C[C@H](C)C[C@H](C)C2)CC1	522 1×10^−6 cm/s

Turning to the following compound.
Prompt: I would be grateful if you could share the reported PAMPA permeability for Cc1oc(-c2ccccc2Cl)nc1CN1CCC(C(=O)NCCCN2C[C@H](C)C[C@H](C)C2)CC1 .
Completion: 352.4 1×10^−6 cm/s

---

# ASSAY PROTOCOL: PAMPA permeability
# Assay type: in vitro ADME
EXPERIMENTAL ENDPOINT: PAMPA permeability

1) Cc1cc(C)cc(-c2nc(CN3CCC(C(=O)NCCCN4C[C@H](C)C[C@H](C)C4)CC3)c(C)o2)c1	864 1×10^−6 cm/s
2) Cc1ccccc1-c1nc(CN2CCC(C(=O)NCCCN3CCCC(CC(C)C)C3)CC2)c(C)o1 (racemic)	3 1×10^−6 cm/s
3) Cc1ccccc1-c1nc(CN2CCC(C(=O)NCCCN3CCC(C(C)C)CC3)CC2)c(C)o1	395.6 1×10^−6 cm/s
4) Cc1cccc(C)c1-c1nc(CN2CCC(C(=O)NCCCN3C[C@H](C)C[C@H](C)C3)CC2)c(C)o1	253.9 1×10^−6 cm/s
5) COc1ccc(-c2nc(CN3CCC(C(=O)NCCCN4C[C@H](C)C[C@H](C)C4)CC3)c(C)o2)cc1OC	81.9 1×10^−6 cm/s

Prompt: Which value of PAMPA permeability has been reported for Cc1ccc2ccccc2c1-c1nc(CN2CCC(C(=O)NCCCN3C[C@H](C)C[C@H](C)C3)CC2)c(C)o1 in the records?
Completion: 547.1 1×10^−6 cm/s

Prompt: What does the data say about its PAMPA permeability? Entry: Cc1cccc(Cl)c1-c1nc(CN2CCC(C(=O)NCCCN3CCCC(C)C3)CC2)c(C)o1 (racemic)
Completion: 650.6 1×10^−6 cm/s

Prompt: Can you look up the measured PAMPA permeability of Cc1ccccc1-c1nc(CN2CCC(C(=O)NCCCN3[C@H](C)CCC[C@@H]3C)CC2)c(C)o1 for me?
Completion: 55.4 1×10^−6 cm/s

---

# ASSAY PROTOCOL: PAMPA permeability
# Type: in vitro ADME
EXPERIMENTAL ENDPOINT: PAMPA permeability

Worked examples follow.
1. Cc1oc(-c2c(Br)cccc2Br)nc1CN1CCC(C(=O)NCCCN2C[C@H](C)C[C@H](C)C2)CC1 [7ll]	<1.0 1×10^−6 cm/s
2. Cc1ccccc1-c1nc(CN2CCC(C(=O)NCCCN3CC(C)(C)CC(C)(C)C3)CC2)c(C)o1 [7d]	>1397 1×10^−6 cm/s
3. Cc1oc(-c2c(F)cccc2F)nc1CN1CCC(C(=O)NCCCN2C[C@H](C)C[C@H](C)C2)CC1 [7jj]	82.4 1×10^−6 cm/s

Prompt: Reported PAMPA permeability, compound Cc1ccccc1-c1nc(CN2CCC(C(=O)N3CCN(CCN(C)C)CC3)CC2)c(C)o1 [7s] : ____
Completion: 14 1×10^−6 cm/s

Prompt: Request the reported PAMPA permeability associated with CC[C@@H]1C[C@H](CC)CN(CCCNC(=O)C2CCN(Cc3nc(-c4c(F)cccc4F)oc3C)CC2)C1 [7kk]
Completion: 129.9 1×10^−6 cm/s

Prompt: Need PAMPA permeability, item Cc1oc(-c2c(C)c(C)c(C)c(C)c2C)nc1CN1CCC(C(=O)NCCCN2C[C@H](C)C[C@H](C)C2)CC1 [7cc]
Completion: 455.2 1×10^−6 cm/s

Prompt: Entry under review: CCCN(CCC)CCNC(=O)C1CCN(Cc2nc(-c3ccccc3C)oc2C)CC1 [7p] . Reported PAMPA permeability?
Completion: 913.1 1×10^−6 cm/s

Prompt: Given the compound Cc1ccc(-c2nc(CN3CCC(C(=O)NCCCN4C[C@H](C)C[C@H](C)C4)CC3)c(C)o2)cc1 [7u] , what is its reported PAMPA permeability?
Completion: 274.3 1×10^−6 cm/s

Prompt: Which PAMPA permeability reading was recorded for the compound Cc1ccccc1-c1nc(CN2CCC(C(=O)NCCCN3CC4CCCC(C4)C3)CC2)c(C)o1 [7m] ?
Completion: 330.9 1×10^−6 cm/s

---

# ASSAY PROTOCOL: PAMPA permeability
# Format: in vitro ADME
EXPERIMENTAL ENDPOINT: PAMPA permeability

Past entries and their recorded results:
1. COc1cccc(Cl)c1-c1nc(CN2CCC(C(=O)NCCCN3C[C@H](C)C[C@H](C)C3)CC2)c(C)o1	51.0 1×10^−6 cm/s
2. Cc1ccccc1-c1nc(CN2CCC(C(=O)NCCN3C[C@H](C)C[C@H](C)C3)CC2)c(C)o1	712.4 1×10^−6 cm/s
3. CCc1ccccc1-c1nc(CN2CCC(C(=O)NCCCN3C[C@H](C)C[C@H](C)C3)CC2)c(C)o1	106.1 1×10^−6 cm/s
4. Cc1cc(-c2nc(CN3CCC(C(=O)NCCCN4C[C@H](C)C[C@H](C)C4)CC3)co2)ccc1F [18a]	215.4 1×10^−6 cm/s
5. Cc1ccc(-c2nc(CN3CCC(C(=O)NCCCN4C[C@H](C)C[C@H](C)C4)CC3)c(C)o2)c(C)c1	353.1 1×10^−6 cm/s

Prompt: Recorded PAMPA permeability of COc1cccc(Br)c1-c1nc(CN2CCC(C(=O)NCCCN3C[C@H](C)C[C@H](C)C3)CC2)c(C)o1 , please.
Completion: 245.3 1×10^−6 cm/s

Prompt: # PAMPA permeability lookup, item Cc1ccccc1-c1nc(CN2CCC(C(=O)NCCCN3CCC(C)CC3)CC2)c(C)o1
Completion: 424.7 1×10^−6 cm/s

Prompt: Give the measured PAMPA permeability of Cc1ccccc1-c1nc(CN2CCC(C(=O)N3CCN(C4CCN(C)CC4)CC3)CC2)c(C)o1 .
Completion: <3.2 1×10^−6 cm/s

Prompt: Need PAMPA permeability, item Cc1cc(-c2nc(CN3CCC(C(=O)NCCCN4CCC(C(C)C)CC4)CC3)co2)ccc1F [18b]
Completion: 276.4 1×10^−6 cm/s

Prompt: Which PAMPA permeability reading was recorded for the compound Cc1cccc(Cl)c1-c1nc(CN2CCC(C(=O)NCCCN3C[C@H](C)C[C@H](C)C3)CC2)c(C)o1 ?
Completion: 196.3 1×10^−6 cm/s

Prompt: // returns reported PAMPA permeability for input Cc1ccccc1-c1nc(CN2CCC(C(=O)NCCCN3C[C@H](C)C[C@@H](C)C3)CC2)c(C)o1 (racemic)
Completion: 553.7 1×10^−6 cm/s

Prompt: # PAMPA permeability lookup, item Cc1cccc(-c2nc(CN3CCC(C(=O)NCCCN4C[C@H](C)C[C@H](C)C4)CC3)c(C)o2)c1
Completion: 279.1 1×10^−6 cm/s

Prompt: Given Cc1ccccc1-c1nc(CN2CCC(C(=O)NCCCN3CCC(C)(C)CC3)CC2)c(C)o1 , state its recorded PAMPA permeability.
Completion: 241.4 1×10^−6 cm/s

---

# ASSAY PROTOCOL: PAMPA permeability
# Format: in vitro ADME
// values below are reported PAMPA permeability

1. CCN(CC)CCCCNC(=O)C1CCN(Cc2nc(-c3ccc(OC)c(OC)c3)oc2C)CC1	10.4 1×10^−6 cm/s
2. Cc1ccccc1-c1nc(CN2CCC(C(=O)NCCCN3C[C@H](C)C[C@H](C)C3)CC2)c(C)o1	489.1 1×10^−6 cm/s
3. Cc1cccc(F)c1-c1nc(CN2CCC(C(=O)NCCCN3C[C@H](C)C[C@H](C)C3)CC2)c(C)o1	233.8 1×10^−6 cm/s
4. Cc1oc(-c2cccc(Cl)c2)nc1CN1CCC(C(=O)NCCCN2C[C@H](C)C[C@H](C)C2)CC1	615.1 1×10^−6 cm/s
5. Cc1ccccc1-c1nc(CN2CCC(C(=O)NCCCN3CCCCC3)CC2)c(C)o1	34.5 1×10^−6 cm/s

Prompt: Value lookup for PAMPA permeability; key = Cc1oc(-c2ccc(Cl)cc2)nc1CN1CCC(C(=O)NCCCN2C[C@H](C)C[C@H](C)C2)CC1
Completion: >635.0 1×10^−6 cm/s

Prompt: GET /values?readout=PAMPA permeability&item= Cc1ccccc1-c1nc(CN2CCC(C(=O)NCCCN3CCOCC3)CC2)c(C)o1
Completion: 432.4 1×10^−6 cm/s
